Attribution: patent US10513521B2

experiment: Cell-based assay, TGFb1 (Cell IC50)
quantity measured: IC50 (nM)

{"columns": ["input smiles", "unit abbrev", "assay result"],
 "data": [
  ["NS(=O)(=O)c1cccc(-c2cnn3cc(-c4ccc(C5CCNCC5)cc4)cnc23)c1", "nM", 64],
  ["NC(=O)c1ccc(-c2cnn3cc(-c4ccc(N5CCNCC5)cc4)cnc23)c2ccccc12", "nM", 331],
  ["CC(C)(CN1CCCCC1)Oc1ccc(-c2cnc3c(-c4cccc5c(C(N)=O)cccc45)cnn3c2)cc1", "nM", 270],
  ["N=C(N)c1ccc(-c2cnn3cc(-c4ccc(N5CCNCC5)cc4)cnc23)cc1", "nM", 44100],
  ["N/C(=N/O)c1ccc(-c2cnn3cc(-c4ccc(N5CCNCC5)cc4)cnc23)c2ccccc12", "nM", 2660]
]}

P = CC(C)(CN1CCCCC1)Oc1ccc(-c2cnc3c(-c4ccc(C(N)=O)c5ccccc45)cnn3c2)cc1
Q = NC(=O)c1cccc2c(-c3cnn4cc(-c5ccc(N6CCNCC6)cc5)cnc34)cccc12
stdin: Between these two entries, P and Q , state which has the higher IC50. Lab log: write the label of the selected item as the result.
stdout: Q
(Q: 764 nM, P: 434 nM)

====

molecular target: ALK1 (Homo sapiens, UniProt P37023); test: TR-FRET enzymatic ALK kinase assay, ALK1
Sequence (P37023 22-503): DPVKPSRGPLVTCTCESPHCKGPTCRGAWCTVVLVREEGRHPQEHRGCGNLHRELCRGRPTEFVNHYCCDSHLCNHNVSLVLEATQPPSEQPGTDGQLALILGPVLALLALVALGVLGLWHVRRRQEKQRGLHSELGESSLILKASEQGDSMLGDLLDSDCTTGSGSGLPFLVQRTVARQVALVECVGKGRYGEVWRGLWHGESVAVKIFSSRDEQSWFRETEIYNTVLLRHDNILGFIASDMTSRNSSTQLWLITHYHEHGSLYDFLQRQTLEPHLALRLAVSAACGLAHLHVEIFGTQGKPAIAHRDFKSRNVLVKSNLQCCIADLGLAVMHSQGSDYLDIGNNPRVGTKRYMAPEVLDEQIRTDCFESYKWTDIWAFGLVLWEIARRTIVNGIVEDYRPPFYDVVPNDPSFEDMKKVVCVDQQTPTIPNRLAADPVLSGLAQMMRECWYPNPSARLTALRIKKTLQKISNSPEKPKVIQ
pIC50: −log10 of the molar value.
quantity measured: pIC50

Solved entries:
{"columns": ["compound", "pIC50"],
 "data": [
  ["O=[S+]([O-])(c1cccc(-c2cnn3cc(-c4ccc(CN5CCCCC5)cc4)cnc23)c1)C1CC1 [Compound 125]", 6.37],
  ["CS(=O)(=O)c1cccc(-c2cnn3cc(-c4ccc(C5CCCNC5)cc4)cnc23)c1 (stereo not drawn) [Compound 139]", 6.43],
  ["CC(N)c1ccc(-c2cnc3c(-c4cccc([S+](C)(=O)[O-])c4)cnn3c2)cc1 (stereo not drawn) [Compound 187]", 6.37],
  ["CN(C)CCOc1ccc(-c2cnc3c(-c4ccc(S(N)(=O)=O)c5ccccc45)cnn3c2)cc1 [Compound 61]", 6.33],
  ["C[S+](=O)([O-])c1cccc(-c2cnn3cc(-c4ccc(OC5(CN6CC(F)(F)C6)CC5)cc4)cnc23)c1 [Compound 176]", 6.14],
  ["C[C@@H]1CNC[C@H](C)N1c1ccc(-c2cnc3c(-c4ccc(N)c(S(N)(=O)=O)c4)cnn3c2)cc1 [Compound 85]", 6.92],
  ["CC(O)c1cccc(-c2cnn3cc(-c4ccc(CCN5CCC(O)CC5)cc4)cnc23)c1 (stereo not drawn) [Compound 151]", 6.09],
  ["C[C@@H]1CNC[C@H](C)N1c1ccc(-c2cnc3c(-c4ccc(F)c(C#N)c4)cnn3c2)cc1 [Compound 84]", 6.07]
]}

a = C[C@@H]1CNC[C@H](C)N1c1ccc(-c2cnc3c(-c4cccc(C(C)(C)O)c4)cnn3c2)cc1 [Compound 103]
b = N/C(=N/O)c1ccc(-c2cnn3cc(-c4ccc(N5CCNCC5)cc4)cnc23)cc1 [Compound 13]
c = C[C@@H]1CNC[C@H](C)N1c1ccc(-c2cnc3c(-c4cccc(C#N)c4)cnn3c2)cc1 [Compound 69]
d = Fc1ccc(-c2cnn3cc(-c4ccc(CCN5CCCCC5)cc4)cnc23)cc1-c1nnn[nH]1 [Compound 78]
stdin: Sort entries by pIC50 from minimum to maximum value. Give me the labels in the order the question wants.
stdout: c, b, d, a
(c: 6.03, b: 6.56, d: 6.82, a: 7.54)

1 = C[C@H](O)c1cccc(-c2cnn3cc(-c4ccc(OCCN5CCCCC5)cc4)cnc23)c1 [Compound 201]
2 = CC(C)(CN1CCCCC1)Oc1ccc(-c2cnc3c(-c4cccc(S(N)(=O)=O)c4)cnn3c2)cc1 [Compound 96]
stdin: Between these two entries, 1 and 2 , state which has the higher pIC50. Lab log: write the label of the selected item as the result.
stdout: 2
(2: 6.62, 1: 6.00)
